Biological target: Ubiquitin-activating enzyme e1, putative (Leishmania donovani (strain BPK282A1)) (UniProt E9BSI1)
Sequence (E9BSI1 as listed by the source): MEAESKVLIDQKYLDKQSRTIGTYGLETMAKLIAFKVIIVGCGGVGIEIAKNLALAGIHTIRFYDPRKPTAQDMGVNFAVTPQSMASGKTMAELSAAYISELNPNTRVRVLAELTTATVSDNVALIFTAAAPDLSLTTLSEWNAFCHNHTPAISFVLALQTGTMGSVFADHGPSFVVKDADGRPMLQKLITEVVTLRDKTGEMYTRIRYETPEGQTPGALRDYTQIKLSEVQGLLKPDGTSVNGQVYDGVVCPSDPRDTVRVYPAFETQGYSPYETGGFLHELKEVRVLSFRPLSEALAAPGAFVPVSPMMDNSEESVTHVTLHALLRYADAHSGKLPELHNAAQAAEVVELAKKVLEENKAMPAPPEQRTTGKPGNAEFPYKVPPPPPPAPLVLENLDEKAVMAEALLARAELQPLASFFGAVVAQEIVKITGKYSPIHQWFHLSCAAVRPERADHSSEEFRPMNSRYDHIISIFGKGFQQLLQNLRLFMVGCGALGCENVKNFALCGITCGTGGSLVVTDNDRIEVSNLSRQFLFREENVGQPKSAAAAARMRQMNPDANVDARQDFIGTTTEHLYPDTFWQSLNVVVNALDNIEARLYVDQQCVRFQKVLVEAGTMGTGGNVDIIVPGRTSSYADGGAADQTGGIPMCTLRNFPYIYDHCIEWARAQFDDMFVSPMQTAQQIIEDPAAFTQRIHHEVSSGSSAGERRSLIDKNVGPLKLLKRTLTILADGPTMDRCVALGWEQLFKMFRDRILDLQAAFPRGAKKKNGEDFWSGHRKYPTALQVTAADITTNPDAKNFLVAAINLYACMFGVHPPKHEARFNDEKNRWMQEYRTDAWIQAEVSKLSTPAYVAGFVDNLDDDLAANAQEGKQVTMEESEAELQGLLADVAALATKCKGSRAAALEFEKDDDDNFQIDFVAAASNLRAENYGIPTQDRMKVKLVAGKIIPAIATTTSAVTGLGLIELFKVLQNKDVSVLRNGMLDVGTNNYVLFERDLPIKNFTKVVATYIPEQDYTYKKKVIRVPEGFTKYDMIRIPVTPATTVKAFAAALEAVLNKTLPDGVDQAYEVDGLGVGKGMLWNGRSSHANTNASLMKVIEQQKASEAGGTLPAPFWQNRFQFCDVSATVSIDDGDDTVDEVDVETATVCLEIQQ
Experiment: Leishmania donovani Ubiquitin Activating Enzyme (LdE1)
Format: functional
Set-up: scale not given: direction of the effect not stated beside the values
Conditions: 30 µM
Results with a measured potency or affinity are listed apart.
Can you tell me Percent Effect for the items I'm about to list?
The reply should be a number in %, with the unit left off.

Consider the compound shown here: O=C(Cc1ccccn1)N1CCc2nc(-c3cnccn3)nc(O)c2C1 What is its recorded Percent Effect? 12.2

Follow-up item: Cc1cc(-c2nn(C)c(Cl)c2CN2CCOCC(O)C2)no1 (configuration not stated) 13.5

Same for CCc1ccc(NC(=O)C2OC(c3cccs3)=NN2C(C)=O)cc1 (configuration not stated) 12

Also Cn1cnc2c1C(COCc1cccnc1)N(Cc1ccccn1)CC2 (configuration not stated) ? 8

One more compound: Cc1nc(C)n(CC2CN(CCOCC(F)(F)F)CCO2)n1 (configuration not stated) 0

Repeat for the following compound: COc1nc(C)c(C(=O)N(C)Cc2nc(-c3ccccn3)no2)s1 13.3

How about O=C(NCCN1CCOCC1)NCC(O)c1cccc(F)c1 (configuration not stated) ? 16.2

Another: CNc1cccc(C2CCCN(C(C)=O)C2)n1 (configuration not stated) 6.67

COCCOc1ncccc1CNCc1c(C)nn(C)c1N(C)C ? -5.41

Then this compound: CNS(=O)(=O)CCCN1CCCC1c1cc(C)on1 (configuration not stated) 0

Then this compound: Cc1cc(N2CCN(Cc3ccccc3)CC(O)C2)cc(C)n1 (configuration not stated) -2.7

# repeat for c1cncc(-c2nccc(CN3CCCC3)n2)c1 6.76

###

Target: Proteasome subunit beta (Trypanosoma cruzi) (UniProt O96673)
Sequence (O96673 as listed by the source): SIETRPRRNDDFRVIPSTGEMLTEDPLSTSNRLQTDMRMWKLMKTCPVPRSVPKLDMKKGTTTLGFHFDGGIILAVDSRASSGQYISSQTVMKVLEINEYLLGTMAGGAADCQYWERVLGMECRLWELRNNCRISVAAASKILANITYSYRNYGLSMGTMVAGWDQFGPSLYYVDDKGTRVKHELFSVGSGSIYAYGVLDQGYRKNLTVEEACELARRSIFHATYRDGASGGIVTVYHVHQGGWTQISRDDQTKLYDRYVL
Experiment: Trypanosoma cruzi proteasome chymotrypsin-like activity (TcProtChymo) assay. Note: in the data most compounds retested in dose-response had high values.
Assay type: functional
Design: scale not given: direction of the effect not stated beside the values
Conditions: 9.37 µM
Measured metric: Percent Effect (%)
Answer with a number only, understood to be in %.

Entry CN1CCCC(Cc2cncc(C(=O)NCC3CC3)c2)C1 (stereo not drawn) has what Percent Effect? 4.68

Same thing, different compound: COCCCNC(=O)N1CCCC(c2nncn2C)C1 (stereo not drawn) 7.87

Let us now turn to O=C(O)CCc1cc2n(n1)CCCN(C(=O)c1ccc3cc[nH]c3c1)C2 11.9

Moving on to the next compound: CC(C)N(C)CCCNC(=O)c1cnc(-c2ccccc2)nc1 8.67

// query: Cc1cc(-c2nn(C)c(Cl)c2CN2CCOCC2CC(=O)O)no1 (stereo not drawn) 12.2

Same thing, different compound: Cc1cn2c(n1)CCC(NC(=O)CCn1cncn1)C2 (stereo not drawn) 10.4

Please answer likewise for Cc1ccc(C(=O)NC2CCN(C(=O)Nc3ccccn3)CC2)o1 6.71

For CCc1nc(C)c(C(=O)N2C[C@H]3CC[C@@H]2CN(S(=O)(=O)N(C)C)C3)s1 then? 15.9

Let us now turn to COc1ccc2c(c1)CCCN2Cc1nc2c(cnn2C)c(=O)[nH]1 3.52

Likewise for COCC1COCCC12CCN(C(=O)CCOc1ccccc1)CC2 (stereo not drawn) ? 6

Queued: CNS(=O)(=O)CCCN1CCCC1c1noc(C2CC2)n1 (stereo not drawn) 9.91

Same thing, different compound: C[S+]([O-])c1nncn1CC(=O)c1ccc(Cl)c(Cl)c1 (stereo not drawn) 4.38

Next compound: O=C(c1cnc(-c2ccco2)s1)N1CCCC1Cn1cccn1 (stereo not drawn) 9.09

// next record Cn1cc(Br)c(=O)c(NS(=O)(=O)c2cc(F)ccc2Cl)c1 13.3

// repeat for Cn1ccnc1CN1CCN(CC(O)c2cccc(F)c2)CC1 (stereo not drawn) and report 15.4

Repeat with COc1ncccc1C(=O)N1CCn2c(COCC3CC3)cnc2C1C (stereo not drawn) 8.21

How about CC(NC(=O)N1CCN(CCc2ccccc2)CC1)c1nncn1C (stereo not drawn) ? 7.55

Could you do the same for Cn1cc(CNCCOc2ccc(F)c(F)c2)c(-c2cccnc2)n1 , please? 5.41

Ok, now CCOc1ccccc1CSc1nnc(CC2CCS(=O)(=O)C2)n1C (stereo not drawn) 9.19

Moving on to the next compound: CCOC(=O)N1CCN(c2nc(NCCCO)c3ccccc3n2)CC1 0.739

Subsequent entry: COc1ccc(OC)c(-c2nc(CN(C)Cc3nncn3C)c(C)o2)c1 13.7

Now the same for CC(=O)Nc1c(C)cnn1Cc1cc(F)ccc1F 2.09

Now give it for CC(Cn1cccn1)NC(=O)N1CCN(Cc2cccnc2)CC1 (stereo not drawn) too. 11.2

What do we get for Cc1cnn(CC2CCCN2Cc2coc(-c3cccs3)n2)c1 (stereo not drawn) ? 1.77

Next entry: CN(C)S(=O)(=O)N1CCC[C@]2(C[C@@H](Oc3ccccn3)CO2)C1 9.75

Next up: CCn1c(C)cc(C(=O)N2CCCC(n3nc(C)nc3C)C2)c1C (stereo not drawn) 4.35

Let us now turn to CCO[C@@H]1CCN(C(=O)c2cscn2)[C@@H]1Cc1cnn(C)c1 -1.15

c1cnc(-c2nc(CNCCn3cccn3)cs2)nc1 ? 7.18

Note, next up: O=C(c1ccc[nH]1)N1CCCC(c2cc(C(F)(F)F)[nH]n2)C1 (stereo not drawn) -0.0846

Same read-out for Cc1cnn(CCC(=O)N2CCN(c3nc(C)cs3)CC2)c1 ? 11.6

Queued: CCc1ccc(C(=O)N2CCCC(c3noc(CC)n3)C2)o1 (stereo not drawn) 4.12

Moving on to the next compound: CC(C)n1[nH]c(=O)c2c1NC(=O)CC2c1cccc(OC(F)F)c1 (stereo not drawn) 16.1

Can you handle Cc1cc(CN2CCN(c3nn4cc(C)nc4s3)CC2)on1 next? 20.4

Ok, now CCn1nccc1CNC(=O)C1CCCC1 9.65

Ok, now Cc1noc(C)c1C(=O)N1CC[C@H]2C[C@@H](c3nccs3)O[C@@H]2C1 14.2

Then Cc1cccc(C(=O)N2CCC(Cc3cnc4[nH]ccc4c3)CC2)n1 ? 9.2

Moving on to the next compound: CCn1cnnc1C1CCN(C(=O)COCCc2ccccc2)CC1 6.71

Also need Cc1ccc(NC2CCN(C(=O)Cc3csc(C)n3)CC2)nn1 , thanks. 18.6

Input CCc1nc(CN(CC(N)=O)C(C)C)cs1 7.78

Repeat for the following compound: CCNc1cc2c(nn1)CCN(C(=O)c1cccc3c1OCCO3)C2 15.4

And the next one, CC(C(=O)NCCOc1cccc(Cl)c1)n1cncn1 (stereo not drawn) ? 7.94

Try the compound O=C(CCN1CCCN(c2nccs2)CC1)NCC1CCCCC1 9.41

Now this one: Cn1cccc1C(=O)N1CCCC2(CCCN2Cc2cccnc2)C1 (stereo not drawn) 7.33

And for CC(C)(C)c1nnc(CN2CCn3c(nnc3C3CC3)C2)o1 ? 3.14

Now consider Cn1ccc2ccnc(CC3CN(C(=O)C4CCC(F)(F)CC4)C3)c21 and answer again. 9.05

Now try O=C1CC[C@@H]2[C@@H](CCN2C(=O)c2ccsc2)N1CC1CC1 . 21.4

Next compound up: CN1CCOC(CNCCc2ccccn2)C1 (stereo not drawn) 5.32

And what about the compound O=C(NCc1cc[nH]n1)N1CCCCC(N2CCCC2)C1 (stereo not drawn) ? 1.27

These entries and their values trace back to ChEMBL document CHEMBL3988442.
